Data origin: the DeepSol protein solubility set

test: soluble on expression in E. coli; label from the status in PepcDB or PDB records
quantity kind: soluble on expression in E. coli

INSERT INTO measurements (chain_sequence, quantity_kind, assay_result) VALUES
  ('MGSDKIHHHHHHMKNKIGSFVIADPNKCTGCRACEVACFTMHNQHNNVGYTVGTVDIPVIPRLYLVKGDNFCMPIQCRHCEDAPCLNSCPQKAIVKENNIMSVNEEKCIGCKTCLLACPFGAIDLLPQYEDGKEVEQVILDENKKIAYKCDLCKDNEKIACISACPQKALKLVTPIDDKKAKNRQAALSLLLTNK', 'soluble on expression in E. coli', 'not soluble'),
  ('MAHHHHHHMLNITRLRNLPEDLFEVDRRQKNGSNQSGKGWPQHKELIFDFTSLVRAYNQNKFEHLTDTFNNNRILISELVLHQLDEKNKVVRSTDAANAQEDDFHPVRLRDLINFLVTNMTESWLEFQRKGTQEDKQFTQLRCLNENVETPLRLISYALYKKRQGKDVLLVTSDSGLKCEAGLNSIDSQSIENIG', 'soluble on expression in E. coli', 'not soluble'),
  ('GGVQLNFGGNFTYNKNEILSLGNVDVQKDARTIRMVGKEFNAFYGYKSDGIFQSKEEIANAPKYTMISNDRLIPGDIKLVDINGDGEINPDDKVILSSENPKYTFAFNLGARWKMFDINLFFQGAAGVSRYFTDEFYGEFNGDSGHPSNHWLGRWTPENPTNKWPRASKFRTYNLPETTCSDFWLVNTNYLRLKDIQVGFNVPKEWLQAVRLGSARIYYSGTNLLTFSKTPQGIDPEAPAGWGAYYPHVKTHSIGINITL', 'soluble on expression in E. coli', 'not soluble');
